These entries and their values trace back to patent US20130142799A1.

# assay.system: T1, human angiopoietin-2 (human, UniProt O15123 19-496, limits assumed)
# T1 construct: also called hAng-2; huAng-2
# T1 sequence (looked up): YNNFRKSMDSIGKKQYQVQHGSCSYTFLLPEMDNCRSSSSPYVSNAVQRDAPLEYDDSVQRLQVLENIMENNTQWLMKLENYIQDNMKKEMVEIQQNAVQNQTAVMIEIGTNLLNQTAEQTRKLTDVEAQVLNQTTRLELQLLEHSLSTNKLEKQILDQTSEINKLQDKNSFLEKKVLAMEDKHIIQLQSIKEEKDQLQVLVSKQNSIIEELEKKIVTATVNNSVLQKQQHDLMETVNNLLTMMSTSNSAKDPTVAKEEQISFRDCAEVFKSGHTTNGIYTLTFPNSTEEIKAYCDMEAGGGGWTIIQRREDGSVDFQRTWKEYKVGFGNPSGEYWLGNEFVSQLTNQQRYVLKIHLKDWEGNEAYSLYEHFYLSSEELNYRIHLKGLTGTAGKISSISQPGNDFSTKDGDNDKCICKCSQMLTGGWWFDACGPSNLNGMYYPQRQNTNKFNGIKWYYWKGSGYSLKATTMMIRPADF
# assay.method.text: Neutralization ELISA: antibody titrated against 1 nM Tie2-Fc on plate-bound hAng-2
In this section, each of the binders is paired with its reported pIC50.
// pIC50: -log10(molar conc.)

binder	pIC50
Ab 537 (antibody, human IgG1, V domains shown, Fully human IgG1 lambda; also called clone 537) VH: QVQLVQSGAEVKKPGSSVKVSCKASGGTFSSYAISWVRQAPGQGLEWMGGIIPILGIANYAQKFQGRVTITADKSTSTAYMELSGLGSEDTAVYYCARGSSDAAVAGMWGQGTLVTVSS VL: QSVLTQPPSVSAAPGQDVTISCSGNNSNIGNNYVSWYQQVPGTAPKLLVYDNHKRPSGISDRFSGSKSDTSATLDITGLQPGDEADYYCGTWDTSLSANWVFGGGTKLTVLR	9.25
Ab G1D4 (antibody, human IgG1, lambda, V domains shown, Fully human IgG1 lambda) VH: QVQLVQSGAEVKKPGSSVKVSCKASGGTFSSHAISWVRQAPGQGLEWMGRIIPILGIANYAQKFQGRVTITADESTSTAYMELSSLRSEDTAVYYCATSRLEWLLYLDYWGQGTLVTVSS VL: NFMLTQPHSVSESPGKTVIIPCTRSSGSIASNYVQWYQKRPGSAPSIVIYEDKQRPSGVPDRFSGSIDSSSNSASLTISGLKTEDEADYYCQSYNSRGVMFGGGTKLTVLG	8.86
Ab 528 (antibody, human IgG1, lambda, V domains shown, Fully human IgG1 lambda) VH: QVQLVQSGAEVKKPGSSVKVSCKASGGTFSSYAISWVRQAPGQGLEWMGGIIPIFGTANYAQKFQGRVTITADESTSTAYMELSSLRSEDTAVYYCARGVVGDFDWLSFFDYWGQGTLVTVSS VL: SYELTQPPSVSVSPGQTASITCSGDKLGYTYTSWFQQKPGQSPVLVIFQDFKRPSGIPERFSGSNSGNTATLTISGTQAMDEADYYCQAWDSTTAVVFGTGTKVTVLG	8.86
Ab 545 (antibody, human IgG1, lambda, V domains shown, Fully human IgG1 lambda; also called clone 545) VH: QVQLQESGGGVVQPGRSLRLSCAASGFTFSSYGMHWVRQAPGKGLEWVAVISYDGSNKYYADSVKGRFTISRDNSKNTLYLQMNSLRAEDTAVYYCAKGPVDFDYGDYAIDYWGQGTLVTVSS VL: QSVLTQPSSVSGAPGQRVTISCTGQSSNIGAGYDVHWYQQFPGRAPKLLIYGNSNRPSGVPDRFSGSKSGTSASLAITGLQPEDEADYYCQSYDSRLSGSVFGGGTKLTVLG	8.98
Ab 553 (antibody, human IgG1, kappa, V domains shown, Fully human IgG1 kappa) VH: QVQLVQSGAEVKKPGASVKVSCKASGYTFTSYAMHWVRQAPGQRLEWMGWINAGNGNTKYSQKFQGRVTITRDTSASTAYMELSGLRSEDTAVYYCARGVDDYGGNSWAFDIWGQGTMVTVSS VL: DIVMTQSPLSLPVTPGEPASISCRSSQSLLHSNGYNYLDWYLQKPGQSPQLLIYLGSNRASGVPDRFTGSGSATDFTLRISRVEAEDVGVYYCMQALQTPLTFGGGTKVEIKR	8.83

Q: Report pIC50 for Ab 531 (antibody, human IgG1, lambda, V domains shown, Fully human IgG1 lambda) VH: EVQLVQSGAEVKKPGSSVKVSCKASGGTFSSYAISWVRQAPGQGLEWMGGIIPILGIANYAQKFQGRVTITADKSTNTAYMELTSLTSDDTAVYYCARDREDTAMVFNYWGQGTLVTVSS VL: QSVLTQPPSVSAAPGQKVTVSCSGSSSNIGNNYVSWYQQLPGTAPKLLIYDNNKRPSGIPDRFSGSKSGTSATLGITGLQTGDEADYYCGTWDSSLSAFWVFGGGTKLTVLG please.
A: 8.67

Q: Also Ab 535 (antibody, human IgG1, lambda, V domains shown, Fully human IgG1 lambda) VH: QVQLVQSGAEVKKPGSSVKVSCKASGGTFSSYAISWVRQAPGQGLEWMGGIIPIFGTANYAQKFQGRVTITADKSTSTAYMELSSLRSEDTAVYYCAAFSPFTETDAFDIWGQGTMVTVSS VL: QSVLTQPPSVSAAPGQKVTISCSGSNSNIGNNFVSWYQQLPGTAPKLLVYDNNKRPSGIPDRFSGSKSGTSATLGITGLQTGDEADYYCGTWDSSLSAAEVVFGGGTKLTVLG , if possible.
A: 8.55

Q: Also Ab 544 (antibody, human IgG1, lambda, V domains shown, also called clone 544) VH: QVQLVQSGAEVKKPGASVKVSCKASGGTFSSYAISWVRQAPGQGLEWMGGIIPIFGTANYAQKFQGRVTITADESTSTAYMELSSLRSEDTAVYYCARFESGYWGDAFDIWGQGTMVTVSS VL: SYELTQPPSVSVSPGQTARITCSGDALPKQYAYWYQQKPGQAPVLVIYKDSERPSGIPERFSGSSSGTTVTLTISGVQAEDEADYYCQSADSSHVVFGGGTKLTVLG , if possible.
A: 9.01

Q: Also Ab 540 (antibody, human IgG1, lambda, V domains shown, Fully human IgG1 lambda) VH: QVQLVQSGAEVKKPGSSVKVSCKASGGTFSSYAISWVRQAPGQGLEWMGGIIPILGIANYAQKFQGRVTITADKFTSTAYMELSSLGSEDTAVYYCARAVPGTEDAFDIWGQGTMVTVSS VL: QSVLTQPPSVSAAPGQKVTISCSGSSSNIGANYVSWYQQLPGTAPKLLIYNNNKRPSGIPDRFSGSKSDTSATLGITGLQTGDEADYYCGAWDSSLSASWVFGGGTKLTVLG , if possible.
A: 9.15
